# collision cross section in nitrogen listing for each entry below
- Protocol summary: collision cross section in nitrogen (drift tube, single-field); higher = larger gas-phase ion size;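 note: chemical standards at 10 µM analysed by drift tube IMS-QTOF MS in about 3.95 torr nitrogen, mean of duplicate injections differing ≤1%, mass error below 10 ppm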
- Measurement conditions: ion type: [M+H]; ion source: APCI; ion mode: Positive
Property: collision cross section in nitrogen

In [3]: df
Out[3]:
                                   molecule  meas_value
0  CCCCc1c(C)nc(NCC)nc1OS(=O)(=O)N(C)C [Bupirimate]    175.8 Å²
1                   C1CN(CCOCCN2CCOCC2)CCO1    151.8 Å²
2   Cc1ccccc1N=Nc1ccc(NC(=O)c2ccnn2C)c(C)c1    189.6 Å²
3  CCc1cccc(C)c1N(C(=O)CCl)C(C)COC (stereo unspecified)    158.9 Å²
4                               Cc1ncsc1CCO    126.1 Å²
5      Oc1ccnc(O)c1 [2,4-Dihydroxypyridine]    119.5 Å²
